Molecular target: T1, ECF38_1322
T1 chain: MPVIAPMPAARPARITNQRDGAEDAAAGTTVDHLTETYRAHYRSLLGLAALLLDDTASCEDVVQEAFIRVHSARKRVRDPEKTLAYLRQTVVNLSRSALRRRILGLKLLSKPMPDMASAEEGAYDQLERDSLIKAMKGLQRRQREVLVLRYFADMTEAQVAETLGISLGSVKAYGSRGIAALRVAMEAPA
quantity name: fold repression

binder	quantitative readout
AS25_1643_cl43 (protein) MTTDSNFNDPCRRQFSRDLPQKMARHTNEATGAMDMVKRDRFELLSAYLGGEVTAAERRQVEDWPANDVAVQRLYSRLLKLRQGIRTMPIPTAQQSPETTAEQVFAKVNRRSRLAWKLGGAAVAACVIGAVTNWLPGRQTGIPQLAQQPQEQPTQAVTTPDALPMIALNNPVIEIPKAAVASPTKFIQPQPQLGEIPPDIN	0.931
AS03_1198 (protein) MDKDFDFDNIGKRTPYRTPDNFFEETQRKILERTVDEQRKKRRLKRIIPTVIAVAAVLAGILFTPSLRYMNTDTPSASNILAVDKNNVTTDPVDKWIKELSDEELEELVSFSENDIFLN	1.07
AS16_973 (protein) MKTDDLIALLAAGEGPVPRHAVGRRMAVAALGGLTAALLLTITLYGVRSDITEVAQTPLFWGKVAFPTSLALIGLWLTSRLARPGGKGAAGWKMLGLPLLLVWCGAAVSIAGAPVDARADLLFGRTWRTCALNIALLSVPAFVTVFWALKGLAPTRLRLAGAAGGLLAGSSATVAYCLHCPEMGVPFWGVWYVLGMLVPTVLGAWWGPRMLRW	0.629
AS30_35 (protein) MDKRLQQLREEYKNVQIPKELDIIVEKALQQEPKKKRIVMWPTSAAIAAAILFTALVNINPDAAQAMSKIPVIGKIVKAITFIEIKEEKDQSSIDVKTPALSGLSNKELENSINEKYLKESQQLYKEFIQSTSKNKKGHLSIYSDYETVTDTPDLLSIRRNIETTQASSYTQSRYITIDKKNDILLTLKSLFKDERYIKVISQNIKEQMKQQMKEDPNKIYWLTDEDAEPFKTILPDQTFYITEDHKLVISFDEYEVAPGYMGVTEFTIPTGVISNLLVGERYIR	1.84
AS03_1244 (protein) MKQFDPDVNIRPKEDSIRHYSVPDDYFASFTDKLMAQIPAVKEENTVVVPSVALWPKLRPLLYLAASFLLMIGMFKAFSLFGVGSDTGRTTSTSAGLVALDHGDTRWSEDTDYRDFLHDNCAETVSDEWVLTDFSE	1.68
AS02_915 (protein) MEKTGQEWVSASVDGETDRQTLAELAADTDSHAKWQRYHLMGDAMRDELPQAMPLDLSARIAAALEDEPTILAPKVEREATQAPSRAVVVPFMRQLGQYGIAAAVALMAVVGVQNYQSTQDDAPLPVLNTRPLVGTATPVSLQTGPVANQNQGNANDQLLEQRRRINAYLQDHMLQQRLNTGAVVDDNSEVTPIPVNR	2.24
